Exercise: for every item that follows, state its recorded LD50 at 4 days.
Method notes: Tolerance in the mouse: LD50 after acute or semi-chronic administration
Assay type: in vivo
Protocol conditions: in vivo, po, twice per day for 4 consecutive days, read-out: In vivo LD50 (mg/kg) (mouse) semi-chronic
Give the number; mg/kg is assumed, so skip it.

LD50 at 4 days reading for C[N+]1(CCCCCCCCCCCCCCCC[N+]2(C)CCCC2)CCCC1 [G25, reference compound] : 65

LD50 at 4 days reading for CCCSSC(CCO)=C(C)N(C=O)CCCCCCCCCCCCN(C=O)C(C)=C(CCO)SSCCC : 410

* * *

Method notes: Tolerance in the mouse: LD50 after acute or semi-chronic administration
Format: in vivo
Protocol conditions: in vivo, po, single dose
Measured parameter: LD50
Hi, when you answer, please include the unit after the number. Thanks!

LD50 reading for CCCSSC(CCO)=C(C)N(C=O)CCCCCCCCCCCCN(C=O)C(C)=C(CCO)SSCCC [TS3b] : 1600 mg/kg

LD50 reading for C[N+]1(CCCCCCCCCCCCCCCC[N+]2(C)CCCC2)CCCC1 [G25, reference compound] : 130 mg/kg

* * *

Method notes: Tolerance in the mouse: LD50 after acute or semi-chronic administration
Format: in vivo
Protocol conditions: acute administration
Measured parameter: Oral absorption index (LD50 po/LD50 ip ratio, acute)
Give the figure by itself; no unit, no explanation.

Oral absorption index (LD50 po/LD50 ip ratio, acute) reading for CCCSSC(CCO)=C(C)N(C=O)CCCCCCCCCCCCN(C=O)C(C)=C(CCO)SSCCC : 6.7

Oral absorption index (LD50 po/LD50 ip ratio, acute) reading for C[N+]1(CCCCCCCCCCCCCCCC[N+]2(C)CCCC2)CCCC1 [G25, reference compound] : 87

Oral absorption index (LD50 po/LD50 ip ratio, acute) reading for Cc1c(CCO)sc[n+]1CCCCCCCCCCCC[n+]1csc(CCO)c1C.[Br-].[Br-] : 70
